Where these numbers come from: ChEMBL document CHEMBL1156049

target: Acetyl-CoA carboxylase 2 (Homo sapiens)
Sequence (O00763 whole entry): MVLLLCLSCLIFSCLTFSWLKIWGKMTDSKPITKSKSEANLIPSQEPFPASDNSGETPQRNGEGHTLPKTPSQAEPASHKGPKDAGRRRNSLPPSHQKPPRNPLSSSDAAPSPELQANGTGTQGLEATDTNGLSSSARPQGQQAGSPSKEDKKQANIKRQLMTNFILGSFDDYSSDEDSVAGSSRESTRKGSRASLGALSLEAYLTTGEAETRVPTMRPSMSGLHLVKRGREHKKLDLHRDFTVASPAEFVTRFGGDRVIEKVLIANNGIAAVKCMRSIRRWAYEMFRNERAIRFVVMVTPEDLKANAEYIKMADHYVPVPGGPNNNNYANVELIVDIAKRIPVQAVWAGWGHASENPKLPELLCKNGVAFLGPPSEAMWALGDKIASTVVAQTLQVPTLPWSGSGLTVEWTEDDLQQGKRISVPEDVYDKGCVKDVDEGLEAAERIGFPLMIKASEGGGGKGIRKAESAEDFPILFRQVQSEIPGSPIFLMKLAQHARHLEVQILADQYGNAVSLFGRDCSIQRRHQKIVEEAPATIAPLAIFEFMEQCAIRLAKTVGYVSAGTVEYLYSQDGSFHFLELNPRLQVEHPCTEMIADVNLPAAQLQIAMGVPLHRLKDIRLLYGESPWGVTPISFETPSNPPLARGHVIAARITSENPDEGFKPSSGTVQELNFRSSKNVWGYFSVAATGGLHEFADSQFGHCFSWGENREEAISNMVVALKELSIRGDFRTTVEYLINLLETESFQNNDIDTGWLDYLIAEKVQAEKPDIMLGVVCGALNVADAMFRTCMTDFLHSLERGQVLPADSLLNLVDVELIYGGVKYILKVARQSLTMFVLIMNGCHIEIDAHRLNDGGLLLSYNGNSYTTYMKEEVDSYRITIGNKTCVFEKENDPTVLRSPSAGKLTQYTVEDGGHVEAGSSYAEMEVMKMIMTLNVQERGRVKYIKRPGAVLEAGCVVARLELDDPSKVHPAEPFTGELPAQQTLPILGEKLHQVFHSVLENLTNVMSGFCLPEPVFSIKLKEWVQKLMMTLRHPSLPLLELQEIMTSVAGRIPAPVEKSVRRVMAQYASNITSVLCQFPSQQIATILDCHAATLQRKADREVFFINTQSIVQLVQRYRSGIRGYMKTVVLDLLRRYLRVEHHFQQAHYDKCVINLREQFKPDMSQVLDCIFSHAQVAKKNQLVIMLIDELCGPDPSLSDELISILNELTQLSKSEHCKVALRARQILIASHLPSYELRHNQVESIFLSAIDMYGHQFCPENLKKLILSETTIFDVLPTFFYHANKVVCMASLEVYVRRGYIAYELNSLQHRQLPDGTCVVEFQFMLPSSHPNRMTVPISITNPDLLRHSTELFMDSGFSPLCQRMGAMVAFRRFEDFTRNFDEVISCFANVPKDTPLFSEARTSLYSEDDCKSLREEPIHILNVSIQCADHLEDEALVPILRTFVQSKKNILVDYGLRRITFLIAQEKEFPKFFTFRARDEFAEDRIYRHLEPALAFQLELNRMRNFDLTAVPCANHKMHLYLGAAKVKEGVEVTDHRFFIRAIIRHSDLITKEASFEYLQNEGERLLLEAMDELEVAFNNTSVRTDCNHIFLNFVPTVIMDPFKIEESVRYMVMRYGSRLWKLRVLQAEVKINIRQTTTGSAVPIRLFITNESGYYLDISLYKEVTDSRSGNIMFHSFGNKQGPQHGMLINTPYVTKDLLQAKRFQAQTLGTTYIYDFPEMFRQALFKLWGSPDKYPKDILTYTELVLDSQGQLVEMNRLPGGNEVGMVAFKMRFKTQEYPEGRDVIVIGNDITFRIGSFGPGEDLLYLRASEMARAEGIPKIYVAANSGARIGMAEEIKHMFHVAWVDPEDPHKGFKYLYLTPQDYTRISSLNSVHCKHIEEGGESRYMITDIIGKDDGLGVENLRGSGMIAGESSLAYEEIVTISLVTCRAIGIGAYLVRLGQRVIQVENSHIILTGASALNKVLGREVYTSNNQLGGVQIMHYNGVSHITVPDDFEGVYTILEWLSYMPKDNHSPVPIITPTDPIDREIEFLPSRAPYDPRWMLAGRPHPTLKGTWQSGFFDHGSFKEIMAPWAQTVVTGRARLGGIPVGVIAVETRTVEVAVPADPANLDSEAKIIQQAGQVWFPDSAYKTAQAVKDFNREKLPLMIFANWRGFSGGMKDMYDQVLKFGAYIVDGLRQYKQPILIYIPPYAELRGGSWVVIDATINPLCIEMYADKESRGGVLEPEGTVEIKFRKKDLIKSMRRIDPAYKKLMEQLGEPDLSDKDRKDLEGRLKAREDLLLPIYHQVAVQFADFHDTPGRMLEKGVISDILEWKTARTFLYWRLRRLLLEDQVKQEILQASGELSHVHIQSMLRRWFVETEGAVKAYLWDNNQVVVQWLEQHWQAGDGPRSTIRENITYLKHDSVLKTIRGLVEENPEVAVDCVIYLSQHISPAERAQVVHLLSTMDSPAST
measurement description: Inhibition of human recombinant ACC 2 expressed in baculovirus expression system by FAS-coupled assay
The label true is reserved for IC50 strictly under 40 nM; false covers values equal to or above it.

[Q] In the record for COCCc1ccc(Oc2ccc(-c3ccc(C(C)NC(C)=O)cc3)cc2)cc1 (stereo not given) , is IC50 less than 40 nM?
[A] false

[Q] Ok, now CCCOc1cccc(Oc2ccc(-c3ccc(C(C)NC(C)=O)cc3)cc2)c1 (stereo not given)
[A] true

[Q] And for CC(=O)NC(C)c1ccc(-c2ccc(Oc3ccc(OC(C)C)cc3)nc2)cc1 (stereo not given) ?
[A] false

[Q] Can you handle CC(=O)NC(C)c1ccc(-c2ccc(Oc3ccc(Cc4ccccc4)cc3)cc2)cc1 (stereo not given) next?
[A] false

[Q] Another compound to check: CC(=O)NC(C)c1ccc(-c2ccc(Oc3cccc(Oc4ccccc4)c3)cc2)cc1 (stereo not given)
[A] true

[Q] What do you have for CCCOc1ccc(Oc2ccc(-c3ccc(C(C)NC(=O)CCC)cc3)cc2)cc1 (stereo not given) ?
[A] false

[Q] // next record CC(=O)NC(C)c1ccc(-c2ccc(Oc3ccc(OCc4ccccc4)cc3)nc2)cc1 (stereo not given)
[A] false

[Q] Let us now turn to CCCOc1ccc(Oc2ccc(-c3ccc(C(C)NC(=O)C(C)O)cc3)cc2)cc1 (racemic)
[A] false

[Q] Can you check CCCOc1ccc(Oc2ccc(-c3ccc(C(C)NC(=O)CC)cc3)cn2)cc1 (stereo not given) next?
[A] true

[Q] One more compound: CC(=O)NC(C)c1ccc(-c2ccc(Oc3ccc(C(=O)c4ccccc4)cc3)cc2)cc1 (stereo not given)
[A] false

[Q] Same question for CCCCC(=O)NC(C)c1ccc(-c2ccc(Oc3ccc(OCCC)cc3)cc2)cc1 (stereo not given) please.
[A] false

[Q] # repeat for CCCOc1ccc(Oc2ccc(-c3ccc(C(C)NC(=O)c4cn[nH]c4)cc3)cn2)cc1 (stereo not given)
[A] false

[Q] Can you check CCOc1ccc(Oc2ccc(-c3ccc(C(C)NC(C)=O)cc3)cn2)cc1 (stereo not given) next?
[A] false

[Q] Another: CCCOc1ccc(Oc2ccc(-c3ccc([C@@H](C)NC(C)=O)cc3)cn2)cc1
[A] false

[Q] How about this compound: CC(=O)NC(C)c1ccc(-c2ccc(Oc3ccc(Oc4ccccc4)cc3)cc2)cc1 (stereo not given)
[A] true
